- Test system: NHBE cells
- procedure.text: Biolog metabolic array: substrate use by NHBE cells with or without CA09 infection
- Type: cell-based, human
- settings: Virus: CA09-infected NHBE cells, MOI 1; Biolog PMM2; 6 hr
recorded.endpoint: 590 nm absorbance normalized to zero hour (substrate use), 6 hr
Give your answer as a number; write no unit.

# compound, numeric.value
records = [
    ("CC(=O)C(C)O (stereo not shown) [3-Hydroxy 2-Butanone]", 2.28),
    ("OC[C@@H]1OC(O)[C@@H](O)[C@H](O)[C@H]1O (stereo partly shown)", 0.61),
    ("Cc1cn([C@H]2C[C@H](O)[C@@H](CO)O2)c(=O)[nH]c1=O", 2.33),
]

Lab note: next compound to report on.
Fill blank: measured 590 nm absorbance normalized to zero hour (substrate use), 6 hr of the compound `O=C(O)CC(CC(=O)O)C(=O)O` is ____. 0.34

---

- Tested on: NHBE cells
- procedure.text: Biolog metabolic array: substrate use by NHBE cells with or without CA09 infection
- Format: cell-based, human
- settings: Virus: CA09-infected NHBE cells, MOI 1; Biolog PMM2; 9 hr
Classification field: enter criterion met for 590 nm absorbance normalized to zero hour (substrate use), 9 hr values not below 3, criterion not met for values below it.

Answered cases to consult:
# compound, assay.system, discrete.label
data = [
    ("OC[C@@H](O)[C@@H](O[C@H]1O[C@H](CO)[C@@H](O)[C@H](O)[C@H]1O)[C@H](O)[C@@H](O)CO", "NHBE cells", "criterion not met"),
    ("O=C(CO)[C@@H](O)[C@H](O)[C@@H](O)CO", "NHBE cells", "criterion not met"),
]

In plain terms: is recorded 590 nm absorbance normalized to zero hour (substrate use), 9 hr at least 3 for `C[C@@H](O)[C@H](O)[C@H](O)[C@@H](O)C=O` ? criterion not met

Field entry: OC[C@H]1OC(O)[C@@H](O)[C@@H](O)[C@@H]1O (stereo partly drawn) criterion met

Can you check `OC[C@H]1O[C@@H](O[C@H]2[C@H](O)[C@@H](O)[C@@H](O)O[C@@H]2CO)[C@H](O)[C@@H](O)[C@H]1O` next? criterion not met

Try the compound `O=C[C@@H](O)[C@H](O)[C@H](O)CO` criterion not met

---

log reduction at 10 pM values for the compounds below.
- Tested on: CA09
- procedure.text: microbe, parasite or virus in culture
- Format: cell-based, influenza virus H1N1 strain A/CA/04/2009
- settings: NHBE, read-out: TCID50 (per mL)
Just the number, please, no unit attached.

# count of solved cases: 2
# structure.smiles, recorded.endpoint, numeric.value
measured = [
    ("O=C(O)c1nn(Cc2ccc(Cl)cc2Cl)c2ccccc12", "log reduction at 10 pM", 0.94),
    ("CC(C)c1nc(N(C)S(C)(=O)=O)nc(-c2ccc(F)cc2)c1/C=C/[C@@H](O)C[C@@H](O)CC(=O)O", "log reduction at 10 pM", 0),
]

Query compound follows.
Fill in: log reduction at 10 pM of `C=C(C)[C@@H]1CC[C@]2(C(=O)O)CC[C@]3(C)[C@H](CC[C@@H]4[C@@]5(C)CC[C@H](O)C(C)(C)[C@@H]5CC[C@]43C)[C@@H]12` is ___ 0.37

---

- Test system: NHBE cells
- procedure.text: Biolog metabolic array: substrate use by NHBE cells with or without CA09 infection
- Format: cell-based, human
- settings: Control (uninfected) NHBE cells, Biolog PMM2, 7 hr
Rule: Substrate use, 590 nm absorbance normalized to zero hour, 7 hr below 4 gives met. Equal to or above 4 gives not met.

Here are 2 molecules together with their reported answers.
# molecule, assay.system, discrete.label
data = [
    ("OC[C@H]1O[C@@H](O[C@H]2[C@H](O)[C@@H](O)[C@H](O)O[C@@H]2CO)[C@H](O)[C@@H](O)[C@@H]1O [D-Cellobiose]", "NHBE cells", "not met"),
    ("NC(=O)CCC(=O)O [Succinamic Acid]", "NHBE cells", "met"),
]

Please determine if CO[C@H]1O[C@H](CO)[C@@H](O)[C@H](O)[C@H]1O [a-Methyl-D-Glucoside] is below 4 in terms of Substrate use, 590 nm absorbance normalized to zero hour, 7 hr. met

Repeat with O=C(O)CCC(=O)O [Succinic Acid] met

Do the same for C[C@@H](O)[C@H](O)[C@H](O)[C@@H](O)C=O [D-Fucose] please met

---

Listed here are compounds together with their documented 590 nm absorbance normalized to zero hour (substrate use), 11 hr.
- System: NHBE cells
- procedure.text: Biolog metabolic array: substrate use by NHBE cells with or without CA09 infection
- Format: cell-based, human
- settings: Virus (CA09-infected, MOI 1) NHBE cells, 11 hr
Output: the number by itself.

Some solved cases for reference:
# compound, assay.system, numeric.value
measured = [
    ("OC[C@@H](O)[C@H](O)[C@@H](O)CO", "NHBE cells", 5.48),
    ("O=C(CO)[C@@H](O[C@H]1O[C@H](CO)[C@@H](O)[C@H](O)[C@H]1O)[C@H](O)[C@H](O)CO", "NHBE cells", 0.55),
    ("CC(O)C(=O)O (stereo not shown)", "NHBE cells", 3.91),
    ("OC[C@H]1O[C@H](OC[C@H]2O[C@H](OC[C@H]3O[C@H](O[C@]4(CO)O[C@H](CO)[C@@H](O)[C@@H]4O)[C@H](O)[C@@H](O)[C@@H]3O)[C@H](O)[C@@H](O)[C@H]2O)[C@H](O)[C@@H](O)[C@H]1O", "NHBE cells", 4.13),
    ("OC[C@H]1O[C@@H]2O[C@H]3[C@H](O)[C@@H](O)[C@@H](O[C@H]4[C@H](O)[C@@H](O)[C@@H](O[C@H]5[C@H](O)[C@@H](O)[C@@H](O[C@H]6[C@H](O)[C@@H](O)[C@@H](O[C@H]7[C@H](O)[C@@H](O)[C@@H](O[C@H]1[C@H](O)[C@H]2O)O[C@@H]7CO)O[C@@H]6CO)O[C@@H]5CO)O[C@@H]4CO)O[C@@H]3CO", "NHBE cells", 4.09),
    ("Cc1cn([C@H]2C[C@H](O)[C@@H](CO)O2)c(=O)[nH]c1=O", "NHBE cells", 2.21),
    ("CC(=O)N[C@H]1C(O)O[C@H](CO)[C@@H](O)[C@@H]1O (stereo partly shown)", "NHBE cells", 5.53),
    ("CO[C@@H]1O[C@H](CO)[C@H](O)[C@H](O)[C@H]1O [b-Methyl-D-Galactoside]", "NHBE cells", 1.96),
    ("CC(=O)CC(=O)O", "NHBE cells", 1.81),
]

Now for a further compound.
I am curious: what 590 nm absorbance normalized to zero hour (substrate use), 11 hr value has been reported for OC[C@H]1O[C@H](OCC2O[C@@H](O)[C@H](O)[C@@H](O)[C@@H]2O)[C@H](O)[C@@H](O)[C@H]1O (stereo partly shown) ? 1.63

---

- Tested on: NHBE cells
- procedure.text: Biolog metabolic array: substrate use by NHBE cells with or without CA09 infection
- Type: cell-based, human
- settings: Virus: CA09-infected NHBE cells, MOI 1; Biolog PMM2; 9 hr
recorded.endpoint: 590 nm absorbance normalized to zero hour (substrate use), 9 hr
Enter a number only.

# compound, numeric.value
measured = [
    ("O=C[C@H](O)[C@@H](O)[C@@H](O)CO", 4.41),
    ("CCC(=O)C(=O)O", 0.34),
    ("OC[C@@H](O)[C@@H](O)[C@H](O)[C@H](O)CO", 0.52),
    ("CO[C@@H]1O[C@H](CO)[C@H](O)[C@H](O)[C@H]1O [b-Methyl-D-Galactoside]", 1.76),
    ("CC(O)C(C)O (centres unmarked)", 0.45),
    ("C[C@H](O)[C@H](O)[C@@H](O)[C@@H](O)C=O", 0.41),
    ("OC[C@@H](O)[C@@H](O)[C@H](O)[C@@H](O)CO", 5.39),
    ("OC[C@H]1O[C@H](OC[C@H]2OC(O)(CO)[C@@H](O)[C@@H]2O)[C@H](O)[C@@H](O)[C@@H]1O (some centres unmarked)", 0.45),
    ("NCCO", 3.41),
    ("CC(=O)CC(=O)O", 1.81),
]

Okay, now this compound:
Report 590 nm absorbance normalized to zero hour (substrate use), 9 hr for COC(=O)C(C)=O [Methyl Pyruvate] please. 3.24

---

- Test system: NHBE cells
- procedure.text: Biolog metabolic array: substrate use by NHBE cells with or without CA09 infection
- Format: cell-based, human
- settings: Virus (CA09-infected NHBE cells, MOI 1); 3 hr
recorded.endpoint: 590 nm absorbance normalized to zero hour (substrate use), 3 hr
Response field accepts a number only; no unit should be typed.

# compound, numeric.value
rows = [
    ("OC[C@@H](O)[C@@H](O[C@H]1O[C@H](CO)[C@@H](O)[C@H](O)[C@H]1O)[C@H](O)[C@@H](O)CO", 1.37),
    ("CC(O)C(C)O (stereo not drawn)", 0.31),
]

Turning now to a further compound:
Can you share its 590 nm absorbance normalized to zero hour (substrate use), 3 hr? I mean this compound: `OC[C@@H](O)[C@@H](O)[C@@H](O)CO` 0.29

Data origin: patent US11083725B2
